Assay: method code SF-GLC, from DOI: 10.1016/0378-4274(82)90116-3, PMID: 7090003
MEASUREMENT NAME: logP
Lab note: jot down the number only; don't add units.

Req: Value lookup for logP; key = C=C(C)C(=O)OC(C)C
Resp: 2.25

* * *

Each entry below carries its recorded logP.
Test: method code SF-AS, from DOI: 10.1080/00021369.1974.10861343

CCCOC(=O)C=COc1ccccc1 ... 3.72

Req: # logP lookup, item CCOC(=O)C=COc1ccccc1
Resp: 3.18

* * *

Experiment: method code SF-RC, from DOI: 10.1023/a:1015913817221, PMID: 2798313
Details: pH 7.4
MEASUREMENT NAME: logD

Req: Requested field: logD. Item: NC(N)=S
Resp: -0.92

* * *

We begin with a simple list: items and their reported logP.
Assay: method code SF-RC, from DOI: 10.1002/ps.2780190203

O=c1ccc(O)n[nH]1 ... -0.63

Req: What value of measured logP is listed for Cc1cc(OCC(=O)O)ccc1S(C)(=O)=O ?
Resp: 0.54

* * *

# reported logP; entries follow
Reply with just the number.

# count of solved cases: 2
Cc1cccc2c1OP(=O)(OCC1OC(n3cc(C=CBr)c(=O)[nH]c3=O)CC1OC(=O)C(C)C)OC2 (stereo not drawn) ... 2.4
Cc1cccc2c1OP(=O)(OCC1OC(n3cc(/C=C/Br)c(=O)[nH]c3=O)CC1OC(=O)C1CCCN1)OC2 (stereo not drawn) ... -0.4

For the next question, use this molecule.
Req: Param item = Cc1cccc2c1OP(=O)(OCC1OC(n3cc(/C=C/Br)c(=O)[nH]c3=O)CC1OC(=O)C(N)C(C)C)OC2 (stereo not drawn) ; retrieve measured logP.
Resp: -0.1

* * *

Experiment: method code SF, from DOI: 10.1248/yakushi1947.96.10_1169, PMID: 1033993
Conditions: pH 0.7
Quick reference for logD among some compounds
// print number alone

Below are worked cases with known answers.
CCCC(C)C1(CC)C(=O)NC(=O)N(C)C1=O (stereo not given) ... 2.45
CCC1(CC)C(=O)NC(=O)N(C)C1=O ... 1.15
CCC1(CCC(C)C)C(=O)NC(=O)N(C)C1=O (stereo not given) ... 2.45
C=CCC1(CC=C)C(=O)NC(=O)N(C)C1=O ... 1.55

Now look at this entry.
Req: I'd like to know its logD. The compound in question is CCCC1(CC)C(=O)NC(=O)N(C)C1=O (stereo not given)
Resp: 1.65

* * *

Experiment: method code SF-AS, from DOI: 10.1016/0006-2952(93)90503-o, PMID: 8373444
Settings: pH 7.4
MEASUREMENT NAME: logD
Answer as a number with no unit attached.

Req: I'd like to know its logD. The compound in question is O=C1OC(c2ccc(O)c(S(=O)(=O)O)c2)(c2ccc(O)c(S(=O)(=O)O)c2)c2c(Br)c(Br)c(Br)c(Br)c21
Resp: -0.55

* * *

Assay: method code SF-GLC, from DOI: 10.1002/jps.2600620103, PMID: 4734195
MEASUREMENT NAME: logP
I only need the number, thanks.

Req: Could you share which logP value was measured for CC(C)C(C)O (stereo unspecified) ?
Resp: 1.28

* * *

Below, each entry is listed alongside its reported logP.
The response must contain the number and no unit.

Worked cases, answers included:
Clc1cccc2c1CCNCC2 ... 2.4
COCCN1CCc2cccc(Cl)c2CC1 ... 3
CCCN1CCc2cccc(Cl)c2CC1 ... 3.5

// moving on: another record for logP
Req: Give its logP value. Item: CS(=O)(=O)NCCN1CCc2cccc(Cl)c2CC1
Resp: 2.51

* * *

MEASUREMENT NAME: logP

Req: What measured logP goes with CC[C@@H]1C(=O)OC[C@@H]1Cc1cncn1C ?
Resp: 0.66

* * *

Parameter: logP. Scope: all listed entries.
Give only the figure.

Below are worked cases with known answers.
Cc1ccc(CC(=O)O)cc1 ... 2.04
CC(C)C(C(=O)O)c1ccc([N+](=O)[O-])cc1 (stereo not drawn) ... 2.09

We next turn to a different compound, shown below.
Req: Looking for the measured logP of CCCCOc1ccc(CC(=O)O)cc1 , can you help?
Resp: 2.94

* * *

MEASUREMENT NAME: logP
Note: the reply should be a number with no unit written.

c1ccc2c(c1)-c1cccc3cccc-2c13 ... 5.15

Req: Give its logP value. Item: O=C1c2ccccc2C(=O)c2c(O)cccc21
Resp: 3.52

* * *

Reported logP is given for each of the following compounds.
Please reply with the number alone, leaving off any unit.

Here is how some compounds turned out for logP.
CNc1nc(NC(C)C)nc(SC)n1 ... 2.79
CCNc1nc(NC(C)CC)nc(OC)n1 (stereo not drawn) ... 2.96

Attention now turns to another entry.
Req: Would you kindly share the measured logP for CCNc1nc(NCC)nc(OC)n1 ?
Resp: 2.41

* * *

Assay: method code SF-GLC, from DOI: 10.1021/je00020a050
Below, each entry is listed alongside its reported logP.

COc1c(Cl)c(Cl)c(Cl)c(Cl)c1OC ... 4.86

Req: Which value of logP has been reported for COc1cc(Cl)c(Cl)c(Cl)c1OC in the records?
Resp: 4.01

Req: Give its logP value. Item: COc1ccc(Cl)c(Cl)c1Cl
Resp: 4.03

* * *

Assay: method code SF-AS, from DOI: 10.1016/0378-5173(86)90115-8
MEASUREMENT NAME: logP
Number, no unit, nothing else.

CCCCCC(=O)N(C)c1ccc(S(=O)(=O)N(C)C)cc1 ... 2.16

Here is another compound to look at.
Req: Item under review: CN(C(=O)CCC(N)=O)c1ccc(S(=O)(=O)N(C)C)cc1 . Reported logP?
Resp: -0.56

* * *

Assay: method code SF-AS, from DOI: 10.1080/10826079508009280
Conditions: pH 7.0
MEASUREMENT NAME: logD
# respond with the number and nothing more

Req: What does the data say about its logD? Entry: Nc1nc(Cl)nc2c1ncn2[C@@H]1O[C@H](CO)[C@@H](O)[C@@H]1F
Resp: 0.5

* * *

MEASUREMENT NAME: logP

Req: Quick one: logP of CC(=O)C1=C(O)C2C3c4c[nH]c5cccc(c45)CC3C(C)(C)N2C1=O (stereo unspecified) ?
Resp: 3.83

* * *

Assay: method code SF-HPLC, from DOI: 10.1002/jps.10112, PMID: 12115830
Settings: pH 7.4
MEASUREMENT NAME: logD
I'd appreciate a reply containing only the number, no unit.

CCSSc1ncc[nH]1 ... 2.13
CC(O)C(C)SSc1ncc[nH]1 (stereo not given) ... 1.39
CC(C)(C)SSc1ncc[nH]1 ... 2.56
CCC(C)SSc1ncc[nH]1 (stereo not given) ... 2.76

With those in mind, consider the next compound.
Req: Query (compound): c1ccc(CSSc2ncc[nH]2)cc1 ; field requested: logD
Resp: 3.05

* * *

Assay: method code SF-HPLC, from DOI: 10.1021/jm00112a026, PMID: 1875345
Details: pH 7.4
MEASUREMENT NAME: logD
Keep the answer to the number alone.

Worked cases, logD given:
OC(CN1C2CCCC21)Cn1ccnc1 (stereo not drawn) ... 0.37
OC(CN1C2CCCCCCC21)Cn1ccnc1 (stereo not drawn) ... 1.84

The record that follows has no logD shown yet.
Req: Entry OC(CN1C2CCc3ccccc3C21)Cn1ccnc1 (stereo not drawn) has what logD?
Resp: 2.15

* * *

Test: method code SF-AS, from PMID: 7306420
Details: pH 7.5
MEASUREMENT NAME: logD
Reply with just the number.

Req: # lookup: logD of C#CCN1C(=O)CN=C(c2ccccc2)c2cc(Cl)ccc21
Resp: 2.87

* * *

Test: method code SF, from DOI: 10.1016/0005-2744(69)90103-x, PMID: 4387594
MEASUREMENT NAME: logP
Please reply with the number alone, leaving off any unit.

Req: Fill in the blank: the reported logP of Nc1ccccc1F is ____.
Resp: 1.26

* * *

Let's look at some compounds and their measured logP.
A bare number is all that is needed in reply.

CC1(C)C=C(C(=O)NCCCN2C(=O)c3ccccc3C2=O)C(C)(C)N1 ... 1.63

Req: Consider the compound COc1ccc(C(C)NCCC(c2ccccc2)c2ccccc2)cc1OC (configuration not stated) and give its measured logP.
Resp: 5.74

* * *

In this section we review reported logP values for a set of molecules.
Respond using a number only.

Req: Item Cc1noc(C)c1NC1=CC(=O)C(=O)c2ccccc21 has what recorded logP?
Resp: 1.51

Req: Returns the measured logP for the input molecule. Input: CCCCCc1onc(C)c1N=C1C=C(O)C(=O)c2ccccc21
Resp: 3.25

These measurements were taken from the SangsterLogP compilation.
